Tested on: A549
Test: Cytotoxicity against human A549 cells after 48 hrs by MTT assay
Assay type: functional, cell-based
Settings: A549, 48 h
The reader will find reported IC50 values listed item by item below.

>  <compound>
CC[C@]12C=CCN3CC[C@]4(C(=C(C(=O)OC)C1)Nc1cc(O)c([C@@H]5C[C@]67c8ccccc8N[C@@]68CC[C@]6(C=CCN5[C@@H]67)C[C@H]8C(=O)OC)cc14)[C@@H]32 (relative stereo)

>  <subject of test>
A549

>  <IC50>
3.4 µM

$$$$
>  <compound>
C=C[C@]12C=CCN3[C@@H](c4cc5c(cc4O)NC4=C(C(=O)OC)C[C@]6(CC)C=CCN7CC[C@@]45[C@@H]76)C[C@@]4(c5ccccc5NC(=O)[C@]4(C(=O)OC)C1)[C@@H]32 (relative stereo)

>  <subject of test>
A549

>  <IC50>
> 40 µM

$$$$
>  <compound>
CC[C@]12C=CCN3CC[C@]4(C(=C(C(=O)OC)C1)Nc1cc(O)c([C@@H]5[C@@H]6O[C@@H]6[C@@]6(CC)CC(C(=O)OC)=C7Nc8cc(O)ccc8[C@@]78CCN5[C@@H]68)cc14)[C@@H]32 (relative stereo)

>  <subject of test>
A549

>  <IC50>
9.7 µM

$$$$
>  <compound>
CC[C@]12C=CCN3CC[C@]4(C(=C(C(=O)OC)C1)Nc1cc(O)c([C@@H]5[C@@H]6O[C@@H]6[C@]67CC[C@@]8(Nc9ccccc9[C@@]89CCN5[C@@H]69)[C@H](C(=O)OC)C7)cc14)[C@@H]32 (relative stereo)

>  <subject of test>
A549

>  <IC50>
> 40 µM

$$$$
